Numbers sourced from patent US20180057604A1.

molecular target: T1, human TfR extracellular domain with N-terminal His tag (human, UniProt P02786 89-760); assay: ELISA, IgG;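 further: ELISA of IgG-containing supernatants tested in 1:5 serial dilutions for 1 h, bound antibody read out with HRP anti-kappa antibody and TMB substrate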
T1 construct: Biotinylated in some assays; also called huTfR; HuTfR
T1 sequence (P02786 89-760 G142S): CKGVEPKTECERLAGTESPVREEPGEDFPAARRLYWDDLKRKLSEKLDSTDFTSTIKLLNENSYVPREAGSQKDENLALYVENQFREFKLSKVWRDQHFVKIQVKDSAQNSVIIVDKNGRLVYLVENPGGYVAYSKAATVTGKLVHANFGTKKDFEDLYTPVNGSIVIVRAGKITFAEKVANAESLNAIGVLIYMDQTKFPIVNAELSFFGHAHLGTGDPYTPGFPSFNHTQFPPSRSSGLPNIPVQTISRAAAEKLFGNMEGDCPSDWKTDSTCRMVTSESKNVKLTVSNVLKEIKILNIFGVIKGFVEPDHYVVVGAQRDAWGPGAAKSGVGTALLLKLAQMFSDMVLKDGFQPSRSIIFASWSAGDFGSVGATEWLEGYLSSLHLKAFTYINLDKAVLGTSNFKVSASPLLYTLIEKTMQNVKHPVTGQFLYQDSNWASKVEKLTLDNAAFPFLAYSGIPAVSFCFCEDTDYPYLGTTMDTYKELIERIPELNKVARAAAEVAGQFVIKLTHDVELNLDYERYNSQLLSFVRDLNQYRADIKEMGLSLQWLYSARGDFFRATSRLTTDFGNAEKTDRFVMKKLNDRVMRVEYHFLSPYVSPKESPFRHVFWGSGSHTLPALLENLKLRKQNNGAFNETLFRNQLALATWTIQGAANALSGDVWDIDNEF
Task for the reader: assign each of the following binders its reported EC50.
Give bare numbers, in mg/L.

Study these solved cases before continuing.
G98A (antibody, V domains shown, also called 7A4.v15 G98A (CDR-H3) IgG; copies: 2 + 2) VH: EVQLVQSGAEVKKPGASVKVSCKGSGYTFTDYAMHWVRQAPGQGLEWMGGISTYFGRTNYNQKFKGRVTMTVDTSISTAYMELSRLRSDDTAVYYCARGLSANYVMDYWGQGTTVTVSS VL: DIVMTQSPDSLAVSLGERATINCRASESVDSYGNSFMHWYQQKPGQPPKLLIYRASNLESGVPDRFSGSGSRTDFTLTISSLQAEDVAVYYCQQSNEAPPTFGQGTKLEIK; 0.0194
Q89A (antibody, V domains shown, also called 7A4.v15 Q89A (CDR-L3) IgG) VH: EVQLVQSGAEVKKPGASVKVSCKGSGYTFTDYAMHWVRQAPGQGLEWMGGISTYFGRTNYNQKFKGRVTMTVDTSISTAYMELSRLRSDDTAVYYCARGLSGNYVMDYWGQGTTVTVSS VL: DIVMTQSPDSLAVSLGERATINCRASESVDSYGNSFMHWYQQKPGQPPKLLIYRASNLESGVPDRFSGSGSRTDFTLTISSLQAEDVAVYYCAQSNEAPPTFGQGTKLEIK; 0.0109

The binder listed as Q90A (antibody, V domains shown, also called 7A4.v15 Q90A (CDR-L3) IgG) VH: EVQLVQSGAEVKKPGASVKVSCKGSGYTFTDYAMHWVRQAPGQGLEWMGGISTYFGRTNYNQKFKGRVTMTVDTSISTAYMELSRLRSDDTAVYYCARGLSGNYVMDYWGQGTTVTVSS VL: DIVMTQSPDSLAVSLGERATINCRASESVDSYGNSFMHWYQQKPGQPPKLLIYRASNLESGVPDRFSGSGSRTDFTLTISSLQAEDVAVYYCQASNEAPPTFGQGTKLEIK shows EC50 equal to 0.0093
